Reference source for all entries: PubChem BioAssay

# METHOD_NOTES: TLR3 IRF3 reporter activation blockers – cell-based, poly I:C stimulus, luciferase, 10K MLSCN set, primary screen (AID 602277)
# SETTINGS: HEK293-TLR3 RL24 IRF3 luciferase reporter, at 10 µM, stronger effect = higher value
READOUT_TYPE: inhibition (%)
Provide the reading as a plain figure in %.

Field: example entries. Status: answers known.
Cc1[nH]c(=O)[nH]c(=O)c1S(=O)(=O)N(C)Cc1ccccc1
13.8
COCCCn1c(=N)c(C(=O)NCC2CCCO2)cc2c(=O)n3cccc(C)c3nc21 (stereo not drawn)
21

Pending molecule:
Prompt: Input `CCOc1ccccc1C(=O)Nn1c(C2CCC2)nc2ccccc2c1=O` , output reported inhibition.
Completion: 37.7

---

# TARGET: Voltage-gated potassium channel subunit beta-2 (Rattus norvegicus)
# METHOD_NOTES: inhibitors of rat Kvbeta2 reductase activity – biochemical, NADPH fluorescence, primary screen (AID 622);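 note: slope of raw intensity against log time taken from 70 to 1610 s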
# SETTINGS: recombinant KvBeta, 4-cyanobenzaldehyde reduction, at 10 µM, stronger effect = higher value
READOUT_TYPE: fluorescence slope
// print number alone

Please review the following examples before continuing.
Cc1ncc(CO)c2c1OC(C)(C)OC2
-0.515
COc1ccc(-n2c(N)c(C(=O)NCc3ccco3)c3nc4ccccc4nc32)c(OC)c1
-0.246
Cc1nc2ncnn2c(N2CCC(C(=O)NCC3CCCO3)CC2)c1Cc1ccccc1 (stereo unspecified)
-0.407

Prompt: Identify measured fluorescence slope associated with `Cc1ccc(-n2ncc3c(=O)n(CC(=O)NC4CCCCC4)cnc32)cc1C`
Completion: -0.575

Prompt: Give fluorescence slope for `Cc1sc2nc(SCC(=O)Nc3c(C)n(C)n(-c4ccccc4)c3=O)n(C)c(=O)c2c1C`
Completion: -0.376

Prompt: Supply recorded fluorescence slope for `O=C(CCNS(=O)(=O)c1ccc(Br)s1)N1CCCCC1` here.
Completion: -0.494

---

# METHOD_NOTES: inhibitors of TNFa-induced NFkB p65 translocation, primary screen, imaging, HUVEC, MLSMR starter and 10KST1 sets (AID 438);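 note: compound added about 3h40 before a 20 min TNFalpha stimulation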
# SETTINGS: HUVEC TNFa-induced p65 nuclear translocation; measured here: nuclei count (cytotoxicity indicator), at 2.08 µM
Listed compounds paired with reported cell count
// keep it numeric: no unit symbol after the value

O=C(Nc1nnc(C2CCCC2)s1)C1CCN(S(=O)(=O)c2ccc(Cl)cc2)CC1
349
CCCN(CCO)Cc1cccc(Br)c1
492
CCOC(=O)CCNC(=O)Nc1ccc2nc(C)n(Cc3ccccc3Cl)c(=O)c2c1
623

Prompt: Give the reported cell count for this compound. `O=C(CN1C(=O)COCC1=O)N1CCOCC1`
Completion: 377

Prompt: Could you please provide reported cell count for `O=C(Nc1ccccc1)c1cccnc1N1CCOCC1` ? Thanks!
Completion: 590

Prompt: Given the compound CC1CCCC(C)N1CCNC(=O)C1CCN(S(=O)(=O)N2CCCCC2)CC1 (stereo not drawn) , write its reported cell count.
Completion: 383

Prompt: // fetch cell count given entry `CCOC(=O)c1c(NC(=O)CSc2nc3c(c(=O)n(C)c(=O)n3C)n2C(C)C)sc(C)c1C`
Completion: 547

Prompt: Look up and report measured cell count for this entry: `Cc1ccc(Nc2nc(N)nc(CN3CCN(Cc4ccc5c(c4)OCO5)CC3)n2)cc1`
Completion: 385

Prompt: Report measured cell count; entry is `COc1ccc(Cc2nn3c(-c4cc(OC)c(OC)c(OC)c4)nnc3s2)cc1`
Completion: 552

Prompt: Please report cell count for the following compound: CC(=O)N1C(=O)N(C)C2C1N(C(C)=O)C(=O)N2C (stereo not drawn)
Completion: 395

Prompt: Supply reported cell count belonging to this compound: `O=C(CN1CCC(n2nnc3ccccc32)CC1)Nc1ccc2c(c1)CCC2`
Completion: 643
